B1: library; numbered along this chain (parent)
chain: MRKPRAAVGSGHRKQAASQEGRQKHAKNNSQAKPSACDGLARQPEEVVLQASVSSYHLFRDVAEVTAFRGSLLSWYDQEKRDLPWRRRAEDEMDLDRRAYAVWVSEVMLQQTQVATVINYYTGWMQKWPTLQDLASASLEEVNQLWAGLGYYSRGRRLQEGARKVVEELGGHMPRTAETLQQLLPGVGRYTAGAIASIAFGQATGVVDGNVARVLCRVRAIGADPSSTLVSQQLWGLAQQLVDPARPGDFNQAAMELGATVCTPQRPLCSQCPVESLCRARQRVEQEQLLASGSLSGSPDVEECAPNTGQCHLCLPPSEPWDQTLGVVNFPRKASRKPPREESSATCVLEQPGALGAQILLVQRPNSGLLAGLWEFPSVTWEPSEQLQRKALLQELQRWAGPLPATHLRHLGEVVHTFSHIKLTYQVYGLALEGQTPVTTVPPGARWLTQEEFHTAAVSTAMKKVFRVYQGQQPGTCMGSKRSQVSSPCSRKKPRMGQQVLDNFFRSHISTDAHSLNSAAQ

Variants of: B1
Protocol details: 8OG:A repair function score (normalized; synonymous = 0, nonsense = -1) (normalized log-likelihood score); higher = more repair activity (WT-like);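 also: cells sorted at 72 h after reporter transfection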
Applied conditions: with 8OG:A DNA repair reporter (GFP) in HEK-293 MUTYH KO cells
Recorded endpoint: 8OG:A repair function score
One number for each entry.

Reference set, count: 6
[[record]]
sequence_variant = "S270C"
recorded_endpoint = "8OG:A repair function score"
observed_result = -0.0715

[[record]]
sequence_variant = "Q484V"
recorded_endpoint = "8OG:A repair function score"
observed_result = -0.0109

[[record]]
sequence_variant = "L369Q"
recorded_endpoint = "8OG:A repair function score"
observed_result = 0.0329

[[record]]
sequence_variant = "P264S"
recorded_endpoint = "8OG:A repair function score"
observed_result = -0.0872

[[record]]
sequence_variant = "V328F"
recorded_endpoint = "8OG:A repair function score"
observed_result = -0.215

[[record]]
sequence_variant = "S54T"
recorded_endpoint = "8OG:A repair function score"
observed_result = -0.0217


Respectfully, I request 8OG:A repair function score for each entry included below.
1. G170F
2. Y151D
3. S294T

[-0.166, -1, 0.00194]
